- Test system: Expi293 cells
- details: percentage of Helicons in cells after treatment and wash; Expi293 cells 1x10^6 cells/mL, 22 hours, 37°C; washed twice with DPBS; MS quantitation, single-point calibration; n=2, mean ± SD
Bridge positions count the residues as written; N and C are the ends. Square brackets hold non-standard residues; d marks the D form. Peptide text beside a SMILES is read from it. * marks the point of attachment. 5FAM = O=C1OC2(c3ccc(O)cc3Oc3cc(O)ccc32)c2ccc(C(=O)*)cc21; R8 = C=CCCCCCC[C@@](C)(N)C(=O)O; S5 = C=CCCC[C@](C)(N)C(=O)O; Nle = CCCC[C@H](N)C(=O)O
measurementName: Helicon in cells ± SD (%)
Enter your answer as a number in %; do not include the unit.

CC(C)C[C@H](NC(=O)[C@H](C)NC(=O)CNC(=O)[C@H](CCCCN)NC(=O)[C@H](CCCNC(=N)N)NC(=O)[C@H](C)NC(=O)[C@H](Cc1ccccc1)NC(=O)[C@H](CCCNC(=N)N)NC(=O)[C@H](CCC(N)=O)NC(=O)c1ccc2c(c1)C(=O)OC21c2ccc(O)cc2Oc2cc(O)ccc21)C(=O)N[C@@H](CCCNC(=N)N)C(=O)N[C@@H](CCC(N)=O)C(=O)N[C@@H](CCCCN)C(=O)N[C@@H](CC(N)=O)C(=O)N[C@H](C(N)=O)C(C)C [FP47831, reference compound] (5FAM-QRFARKGALRQKNV-NH2): 0.0

Now consider a different compound.
Consider the compound CCCC[C@H](NC(=O)[C@@H](NC(C)=O)C(C)C)C(=O)N[C@@H](CCC(N)=O)C(=O)N[C@]1(C)CCCCCCC=CCCC[C@@](C)(C(=O)N[C@@H](Cc2c[nH]cn2)C(=O)N[C@@H](Cc2ccc(O)cc2)C(=O)N[C@H](C(N)=O)C(C)C)NC(=O)[C@H]([C@@H](C)CC)NC(=O)[C@H](Cc2ccccc2)NC(=O)[C@H](C)NC(=O)[C@H](C)NC(=O)[C@H](CCC(N)=O)NC(=O)[C@H](Cc2ccc(O)cc2)NC1=O [FP07871] (Ac-V[Nle]Q[R8]YQAAFI[S5]HYV-NH2; staple 4-11) and give its measured Helicon in cells ± SD (%).
7.0

###

- Test system: Expi293 cells
- details: luminescence at Tfinal (22 hours) divided by Tinitial, measure of ATP levels, reflective of cell health
Bridge positions count the residues as written; N and C are the ends. Square brackets hold non-standard residues; d marks the D form. Peptide text beside a SMILES is read from it. * marks the point of attachment. 5FAM = O=C1OC2(c3ccc(O)cc3Oc3cc(O)ccc32)c2ccc(C(=O)*)cc21; R8 = C=CCCCCCC[C@@](C)(N)C(=O)O; S5 = C=CCCC[C@](C)(N)C(=O)O; Nle = CCCC[C@H](N)C(=O)O
measurementName: CellTiter-Glo fold change ± SD
Reply with the value as a number alone.

Take a look at these entries with their results.
CC(C)C[C@H](NC(=O)[C@H](C)NC(=O)CNC(=O)[C@H](CCCCN)NC(=O)[C@H](CCCNC(=N)N)NC(=O)[C@H](C)NC(=O)[C@H](Cc1ccccc1)NC(=O)[C@H](CCCNC(=N)N)NC(=O)[C@H](CCC(N)=O)NC(=O)c1ccc2c(c1)C(=O)OC21c2ccc(O)cc2Oc2cc(O)ccc21)C(=O)N[C@@H](CCCNC(=N)N)C(=O)N[C@@H](CCC(N)=O)C(=O)N[C@@H](CCCCN)C(=O)N[C@@H](CC(N)=O)C(=O)N[C@H](C(N)=O)C(C)C [FP47831, reference compound] (5FAM-QRFARKGALRQKNV-NH2): 1.1
CCCC[C@H](NC(=O)[C@@H](NC(C)=O)C(C)C)C(=O)N[C@@H](CCC(=O)O)C(=O)N[C@]1(C)CCCCCCC=CCCC[C@@](C)(C(=O)N[C@@H](Cc2c[nH]cn2)C(=O)N[C@@H](Cc2ccc(O)cc2)C(=O)N[C@H](C(N)=O)C(C)C)NC(=O)[C@H]([C@@H](C)CC)NC(=O)[C@H](Cc2ccccc2)NC(=O)[C@H](C)NC(=O)[C@H](C)NC(=O)[C@H](CCC(N)=O)NC(=O)[C@H](Cc2ccc(O)cc2)NC1=O [FP07867] (Ac-V[Nle]E[R8]YQAAFI[S5]HYV-NH2; staple 4-11): 1.2
CC[C@H](C)[C@H](NC(C)=O)C(=O)N[C@@H](CC(C)C)C(=O)N[C@@H](CCC(N)=O)C(=O)N[C@]1(C)CCCCCCC=CCCC[C@@](C)(C(=O)N[C@@H](Cc2c[nH]cn2)C(=O)N[C@@H](Cc2ccc(O)cc2)C(=O)N[C@@H](CCC(N)=O)C(N)=O)NC(=O)[C@H](CO)NC(=O)[C@H](Cc2ccccc2)NC(=O)[C@H](C)NC(=O)[C@H](C)NC(=O)[C@H](CCC(=O)O)NC(=O)[C@H](Cc2ccc(O)cc2)NC1=O [FP07859] (Ac-ILQ[R8]YEAAFS[S5]HYQ-NH2; staple 4-11): 1.2
CC(=O)N[C@@H](CC(C)C)C(=O)N[C@H](C(=O)N[C@@H](Cc1ccccc1)C(=O)N[C@]1(C)CCCCCCC=CCCC[C@@](C)(C(=O)N[C@@H](CO)C(=O)N[C@@H](C)C(=O)N[C@@H](C)C(N)=O)NC(=O)[C@H](CC2CCC2)NC(=O)[C@H](CCC(N)=O)NC(=O)[C@H](C)NC(=O)[C@H](Cc2c[nH]c3ccccc23)NC(=O)[C@H](Cc2ccc(O)cc2)NC(=O)[C@H](CCC(=O)O)NC1=O)[C@@H](C)O [FP01413, reference compound]: 1.2
CCCC[C@H](NC(=O)[C@@H](NC(C)=O)C(C)C)C(=O)N[C@@H](CCC(N)=O)C(=O)N[C@]1(C)CCCCCCC=CCCC[C@@](C)(C(=O)N[C@@H](Cc2c[nH]cn2)C(=O)N[C@@H](Cc2ccc(O)cc2)C(=O)N[C@H](C(N)=O)C(C)C)NC(=O)[C@H]([C@@H](C)CC)NC(=O)[C@H](Cc2ccccc2)NC(=O)[C@H](C)NC(=O)[C@H](C)NC(=O)[C@H](CCC(=O)O)NC(=O)[C@H](Cc2ccc(O)cc2)NC1=O [FP07864] (Ac-V[Nle]Q[R8]YEAAFI[S5]HYV-NH2; staple 4-11): 1.1

For CCCC[C@H](NC(=O)[C@@H](NC(C)=O)C(C)C)C(=O)N[C@@H](CCC(N)=O)C(=O)N[C@]1(C)CCCCCCC=CCCC[C@@](C)(C(=O)N[C@@H](Cc2c[nH]cn2)C(=O)N[C@@H](Cc2ccc(O)cc2)C(=O)N[C@H](C(N)=O)C(C)C)NC(=O)[C@H]([C@@H](C)CC)NC(=O)[C@H](Cc2ccccc2)NC(=O)[C@H](C)NC(=O)[C@H](C)NC(=O)[C@H](CCC(N)=O)NC(=O)[C@H](Cc2ccc(O)cc2)NC1=O [FP07871] (Ac-V[Nle]Q[R8]YQAAFI[S5]HYV-NH2; staple 4-11) , what is its reported CellTiter-Glo fold change ± SD?
1.2

# input compound: CCCC[C@H](NC(=O)[C@@H](NC(C)=O)[C@@H](C)CC)C(=O)N[C@@H](C)C(=O)N[C@]1(C)CCCCCCC=CCCC[C@@](C)(C(=O)N[C@@H](CCC(N)=O)C(=O)N[C@@H](Cc2ccc(O)cc2)C(=O)N[C@@H](CC(N)=O)C(N)=O)NC(=O)[C@H](Cc2c[nH]c3ccccc23)NC(=O)[C@H](Cc2ccccc2)NC(=O)[C@H](C)NC(=O)[C@H](C)NC(=O)[C@H](CCC(N)=O)NC(=O)[C@H](Cc2ccc(O)cc2)NC1=O [FP08023] (Ac-I[Nle]A[R8]YQAAFW[S5]QYN-NH2; staple 4-11) ; wanted: its CellTiter-Glo fold change ± SD
1.2

Find the recorded CellTiter-Glo fold change ± SD belonging to CCCC[C@H](NC(=O)[C@H](Cc1ccc(O)cc1)NC(=O)[C@H](CCC(N)=O)NC(=O)[C@]1(C)CCCC=CCCCCCC[C@@](C)(NC(=O)[C@H](CCC(=O)O)NC(=O)[C@H](CC(C)C)NC(=O)[C@@H](NC(C)=O)[C@@H](C)CC)C(=O)N[C@@H](Cc2ccc(O)cc2)C(=O)N[C@@H](CCC(=O)O)C(=O)N[C@@H](C)C(=O)N[C@@H](C)C(=O)N[C@@H](Cc2ccccc2)C(=O)N[C@@H](CCC(=O)O)C(=O)N1)C(N)=O [FP08018] (Ac-ILE[R8]YEAAFE[S5]QY[Nle]-NH2; staple 4-11) and report it.
1.1

// query CellTiter-Glo fold change ± SD value for entry CCCC[C@H](NC(=O)[C@@H](NC(C)=O)C(C)C)C(=O)N[C@@H](CCC(=O)O)C(=O)N[C@]1(C)CCCCCCC=CCCC[C@@](C)(C(=O)N[C@@H](Cc2c[nH]cn2)C(=O)N[C@@H](Cc2ccc(O)cc2)C(=O)N[C@H](C(N)=O)C(C)C)NC(=O)[C@H]([C@@H](C)CC)NC(=O)[C@H](Cc2ccccc2)NC(=O)[C@H](C)NC(=O)[C@H](C)NC(=O)[C@H](CCC(=O)O)NC(=O)[C@H](Cc2ccc(O)cc2)NC1=O [FP07855] (Ac-V[Nle]E[R8]YEAAFI[S5]HYV-NH2; staple 4-11)
1.2

The reported measurements were obtained from paper PMC9907135.
